The measurements presented in this section are drawn from patent US20120214748A1.

# TARGET_OF_ASSAY: T1, MASP-1 CCP1-CCP2-SP (human, UniProt P48740 298-699, limits assumed)
# T1 construct: domain: CCP1-CCP2-SP; Recombinant fragment
# T1 sequence (looked up): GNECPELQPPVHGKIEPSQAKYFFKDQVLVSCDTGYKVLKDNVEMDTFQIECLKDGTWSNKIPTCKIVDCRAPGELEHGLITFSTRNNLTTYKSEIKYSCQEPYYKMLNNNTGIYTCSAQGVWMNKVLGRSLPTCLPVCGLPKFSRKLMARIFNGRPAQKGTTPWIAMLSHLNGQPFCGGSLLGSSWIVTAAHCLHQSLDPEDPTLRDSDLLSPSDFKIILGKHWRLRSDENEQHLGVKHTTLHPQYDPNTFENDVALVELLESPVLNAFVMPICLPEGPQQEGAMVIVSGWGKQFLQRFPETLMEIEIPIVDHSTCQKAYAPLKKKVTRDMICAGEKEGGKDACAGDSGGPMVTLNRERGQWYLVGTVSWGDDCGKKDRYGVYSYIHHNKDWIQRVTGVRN
# ASSAY_NAME: enzyme inhibition, Z-L-Lys-SBzl substrate, tight-binding fit
Bridge positions count the residues as written; N and C are the ends. Ends that are not written are not given here.
QUANTITY_KIND: pKi
Field pKi (float): negative decimal logarithm of the concentration in molar.

q: Look up and report measured pKi for this entry: GICSRSLPPICIPD (disulfide 3-11 (inferred), Synthetic consensus peptide of the non-selective group, linear form; also called "NS" peptide; non-selective peptide) [M2-4G]
a: 7.19

q: Answer with the recorded pKi of GMCSRSYPPVCIPD (disulfide 3-11 (inferred), Point mutant of M2-6E) [M2-6E-Y2M] only.
a: 5.40

q: For the binder cyclo(GICSRSLPPICIPD) (disulfide 3-11 (inferred), Backbone-cyclised form of M2-4G) [M2-4G cyclic] , give its measured pKi value.
a: 6.56

q: Give the reported value of pKi for this record: GVCSRSLPPICWPD (disulfide 3-11 (inferred), The parent M1-3E was not tested as a synthetic peptide) [M1-3E-Y12W]
a: 6.85
